# target.under.test: HIS-TGFβR1 T204D (Homo sapiens, UniProt P36897, T204D)
# Sequence (P36897 34-503 T204D): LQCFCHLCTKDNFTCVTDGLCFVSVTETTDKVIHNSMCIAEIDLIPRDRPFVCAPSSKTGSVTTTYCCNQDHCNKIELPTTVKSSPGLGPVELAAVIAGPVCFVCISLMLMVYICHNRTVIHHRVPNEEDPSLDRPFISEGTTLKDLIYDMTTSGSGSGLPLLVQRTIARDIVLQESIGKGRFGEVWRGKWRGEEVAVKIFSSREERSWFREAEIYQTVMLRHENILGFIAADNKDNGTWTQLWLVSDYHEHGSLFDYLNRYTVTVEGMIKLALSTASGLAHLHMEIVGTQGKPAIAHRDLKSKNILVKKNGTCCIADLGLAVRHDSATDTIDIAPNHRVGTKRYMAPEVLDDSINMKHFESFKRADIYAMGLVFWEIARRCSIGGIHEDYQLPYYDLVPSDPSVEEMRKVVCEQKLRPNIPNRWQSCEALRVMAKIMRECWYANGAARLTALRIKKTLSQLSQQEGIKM
# test: HTRF probe-displacement assay, HIS-TGFβR1 T204D
# Format: binding
# condition.description: read-out: TGFβR1 (μM) IC50
endpoint.name: IC50 (µM)

COc1ccnc2c(-c3ccc(F)cn3)c(-c3ccnc(NC(C)=O)c3)[nH]c12 [Example 268] = 0.005
COc1ccc(-c2c(-c3ccnc(NC(C)=O)c3)[nH]c3c(OC)ccnc23)cn1 [Example 269] = 0.067
COc1ccc(-c2c(-c3ccnc(NC(C)=O)c3)[nH]c3cc(-c4c(C)noc4C)cnc23)nc1 [Example 93] = 0.003
CC(=O)Nc1cc(-c2[nH]c3cc(Cl)cnc3c2-c2nc(CO)cs2)ccn1 [Example 178] = 0.0035
CC(=O)Nc1cc(-c2[nH]c3cc(F)cnc3c2-c2ncc(C(F)F)s2)ccn1 [Example 182] = 0.182

a = CC(=O)Nc1cc(-c2[nH]c3c(CO)ccnc3c2-c2cccc(Cl)n2)ccn1 [Example 276]
b = COc1ccc2[nH]c(-c3ccnc(NC(C)=O)c3)c(-c3cccc(Cl)n3)c2n1 [Example 77]
Prompt line: Consider entries a and b . Which has the numerically lower IC50? Write the label of whichever entry you select.
Response line: a
(a: 0.001 µM, b: 0.033 µM)

1 = CC(=O)Nc1cc(-c2[nH]c3c(-c4ccnn4C)ccnc3c2-c2cccc(C(F)F)n2)ccn1 [Example 129]
2 = CCOc1ccnc2c(-c3cccc(C(F)F)n3)c(-c3ccnc(NC(C)=O)c3)[nH]c12 [Example 125]
Prompt line: Between 1 and 2 , whose measured IC50 reads higher? Write the label of whichever entry you select.
Response line: 1

1 = COC(=O)Nc1cc(-c2[nH]c3cccnc3c2-c2ccc(OC)nc2)ccn1 [Example 84]
2 = COc1ccc(-c2c(-c3ccnc(NC(C)=O)c3)[nH]c3cc(OC)cnc23)nc1 [Example 284]
Prompt line: Between 1 and 2 , whose measured IC50 reads higher? Write the label of whichever entry you select.
Response line: 2

1 = COc1ccc(-c2c(-c3ccnc(NC(C)=O)c3)[nH]c3c(C)ccnc23)cn1 [Example 215]
2 = COc1ccc(-c2c(-c3ccnc(NC(=O)CN(C)C)c3)[nH]c3cc(OC)cnc23)nc1 [Example 115]
3 = CC(=O)Nc1cc(-c2[nH]c3cccnc3c2-c2ccc(F)c(C(F)F)n2)ccn1 [Example 193]
4 = COC(=O)c1ccnc2c(-c3ccc(F)cn3)c(-c3ccnc(NC(C)=O)c3)[nH]c12 [Example 71]
Prompt line: Hey, quick one: sort these by IC50, largest value first please. Answer with the labels in sequence, matching the requested order.
Response line: 4, 1, 2, 3

a = COc1ccc(-c2c(-c3ccnc(NC(C)=O)c3)[nH]c3cccnc23)nn1 [Example 198]
b = COc1cnc2c(-c3ccc(F)cn3)c(-c3ccnc(NC(C)=O)c3)[nH]c2c1 [Example 49]
Prompt line: Consider entries a and b . Which has the numerically lower IC50? Write the label of whichever entry you select.
Response line: a
(a: 0.0011 µM, b: 0.003 µM)

----------
# target.under.test: HIS-TGFβR1 T204D (Homo sapiens, UniProt P36897, T204D)
# test: HTRF probe-displacement assay, HIS-TGFβR1 T204D
# Assay type: binding
# condition.description: read-out: TGFβR1 (μM) IC50
endpoint.name: IC50 (µM)

Record excerpt, results attached:
COc1ccc(-c2c(-c3ccnc(NC(C)=O)c3)[nH]c3c(Cl)ccnc23)cn1 [Example 271] = 0.002
CNC(=O)c1ccnc2c(-c3ccc(OC)nc3)c(-c3ccnc(NC(C)=O)c3)[nH]c12 [Example 57] = 0.019
CC(=O)Nc1cc(-c2[nH]c3c(C(C)O)ccnc3c2-c2cccc(Cl)n2)ccn1 (stereo not shown) [Example 263] = 0.001
C=Cc1ccnc2c(-c3cccc(C(F)F)n3)c(-c3ccnc(NC(C)=O)c3)[nH]c12 [Example 127] = 0.001
O=C(CNCCN1CCOCC1)Nc1cc(-c2[nH]c3cc(Cl)cnc3c2-c2ccc(F)cn2)ccn1 [Example 241] = 0.004
COc1ccc(-c2c(-c3ccnc(NC(=O)CN4CCOCC4)c3)[nH]c3cc(Cl)cnc23)cn1 [Example 290] = 0.002
CC(=O)Nc1cc(-c2[nH]c3cc(Cl)cnc3c2-c2nc(C)ns2)ccn1 [Example 179] = 0.058
CC(=O)Nc1cc(-c2[nH]c3cccnc3c2-c2ccnc(C#N)c2)ccn1 [Example 190] = 0.0443

P = COc1cnc2c(-c3cccc(C)n3)c(-c3ccnc(NC(C)=O)c3)[nH]c2c1 [Example 283]
Q = CC(=O)Nc1cc(-c2[nH]c3cc(F)cnc3c2-c2ncc(C)s2)ccn1 [Example 183]
R = CC(=O)Nc1cc(-c2[nH]c3c([C@H](C)O)ccnc3c2-c2cccc(C(F)F)n2)ccn1 (single isomer, unassigned) [Example 147]
S = CC(=O)Nc1cc(-c2[nH]c3c(C)ccnc3c2-c2nc(C(F)F)cs2)ccn1 [Example 220]
Prompt line: Hi! Can you put these in order of IC50, lowest number first? Answer with the labels in sequence, matching the requested order.
Response line: S, P, R, Q

1 = COc1ccc(-c2c(-c3ccnc(NC(C)=O)c3)[nH]c3cc(C(=O)C(F)(F)F)cnc23)nc1 [Example 296]
2 = COc1ccc(-c2c(-c3ccnc(NC(=O)CN4CCN(C)CC4)c3)[nH]c3cc(Cl)cnc23)nc1C [Example 238]
3 = O=C(CN1CCOCC1)Nc1cc(-c2[nH]c3cc(Cl)cnc3c2-c2ccc(F)cn2)ccn1 [Example 74]
4 = COc1ccc(-c2c(-c3ccnc(NC(C)=O)c3)[nH]c3c(C(=O)NC(CO)CO)ccnc23)cn1 [Example 59]
Prompt line: Hey, quick one: sort these by IC50, largest value first please. Answer with the labels in sequence, matching the requested order.
Response line: 2, 4, 1, 3
(2: 0.0882 µM, 4: 0.021 µM, 1: 0.002 µM, 3: 0.001 µM)

----------
# target.under.test: HIS-TGFβR2 WT (Homo sapiens, UniProt P37173)
# Sequence (P37173 23-567): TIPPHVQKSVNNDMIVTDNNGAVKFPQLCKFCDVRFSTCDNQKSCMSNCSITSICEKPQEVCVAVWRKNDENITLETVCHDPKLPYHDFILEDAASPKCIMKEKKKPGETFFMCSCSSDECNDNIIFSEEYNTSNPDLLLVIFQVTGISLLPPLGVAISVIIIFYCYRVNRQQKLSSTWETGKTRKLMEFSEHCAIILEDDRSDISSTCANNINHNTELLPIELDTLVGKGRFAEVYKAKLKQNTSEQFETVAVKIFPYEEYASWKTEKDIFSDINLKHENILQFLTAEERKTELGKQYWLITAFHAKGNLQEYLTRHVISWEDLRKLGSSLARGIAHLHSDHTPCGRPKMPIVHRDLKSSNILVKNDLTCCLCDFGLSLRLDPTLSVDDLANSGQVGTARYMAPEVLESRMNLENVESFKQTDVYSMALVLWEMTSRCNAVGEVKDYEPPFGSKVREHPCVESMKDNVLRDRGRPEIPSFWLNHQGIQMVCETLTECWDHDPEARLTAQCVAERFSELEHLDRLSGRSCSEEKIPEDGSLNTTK
# test: HTRF probe-displacement assay, HIS-TGFβR2 WT
# Assay type: binding
endpoint.name: IC50 (µM)

Record excerpt, results attached:
[2H]C([2H])([2H])C(O)c1ccnc2c(-c3cccc(C(F)F)n3)c(-c3ccnc(NC(C)=O)c3)[nH]c12 (stereo not shown) = 2.94
COc1ccc(-c2c(-c3ccnc(NC(=O)C4CC4)c3)[nH]c3cccnc23)cn1 = 0.005
COc1ccc(-c2c(-c3ccnc(NC(=O)CN4CCOCC4)c3)[nH]c3cc(Cl)cnc23)cn1 = 1.12
CN(C)C1CCN(CC(=O)Nc2cc(-c3[nH]c4cc(Cl)cnc4c3-c3ccc(F)cn3)ccn2)CC1 = 4.07
COc1ccc(-c2c(-c3ccnc(NC(C)=O)c3)[nH]c3c(C(C)O)ccnc23)cn1 (stereo not shown) = 0.037

I = COc1ccc(-c2c(-c3ccnc(NC(C)=O)c3)[nH]c3cccnc23)nn1
II = COc1cnc2c(-c3csc(C)n3)c(-c3ccnc(NC(C)=O)c3)[nH]c2c1
Prompt line: Between I and II , whose measured IC50 reads higher? Write the label of whichever entry you select.
Response line: I
(I: 1.48 µM, II: 0.815 µM)

1 = COc1ccc(-c2c(-c3ccnc(NC(C)=O)c3)[nH]c3c(C(C)(C)O)ccnc23)cn1
2 = CC(=O)Nc1cc(-c2[nH]c3c(C(C)O)ccnc3c2-c2ccc(F)nc2)ccn1 (stereo not shown)
Prompt line: Between 1 and 2 , whose measured IC50 reads higher? Write the label of whichever entry you select.
Response line: 1

I = COc1cnc2c(-c3ccc(Cl)cn3)c(-c3ccnc(NC(C)=O)c3)[nH]c2c1
II = COc1ccc(-c2c(-c3ccnc(NC(=O)CN4CCN(C)CC4)c3)[nH]c3cccnc23)cn1
III = COc1ccc(-c2c(-c3ccnc(NC(C)=O)c3)[nH]c3c(OC)ccnc23)cn1
IV = CC(=O)Nc1cc(-c2[nH]c3c(CN4CC(F)(F)C4)ccnc3c2-c2cccc(C(F)F)n2)ccn1
Prompt line: Hi! Can you put these in order of IC50, lowest number first? Answer with the labels in sequence, matching the requested order.
Response line: II, III, IV, I
(II: 0.668 µM, III: 1.04 µM, IV: 4.09 µM, I: 6.57 µM)

----------
# target.under.test: HIS-TGFβR2 WT (Homo sapiens, UniProt P37173)
# test: HTRF probe-displacement assay, HIS-TGFβR2 WT
# Type: binding
endpoint.name: IC50 (µM)

CC(=O)Nc1cc(-c2[nH]c3cccnc3c2-c2ccc(Cl)nc2)ccn1 = 0.33

a = CC(=O)Nc1cc(-c2[nH]c3c(C(C)O)ccnc3c2-c2ccc(F)cn2)ccn1 (centres unmarked)
b = CC(=O)Nc1cc(-c2[nH]c3c(C(C)O)ccnc3c2-c2cccc(C(F)F)n2)ccn1 (centres unmarked)
c = CC(=O)Nc1cc(-c2[nH]c3c(C(C)O)ccnc3c2-c2nc(C(F)(F)F)cs2)ccn1 (centres unmarked)
Prompt line: Hi! Can you put these in order of IC50, lowest number first? Answer with the labels in sequence, matching the requested order.
Response line: a, b, c

P = COc1ccc(-c2c(-c3ccnc(N)c3)[nH]c3cc(Cl)cnc23)cn1
Q = CC(=O)Nc1cc(-c2[nH]c3cc(Cl)cnc3c2-c2nc(C(F)F)cs2)ccn1
Prompt line: Consider entries P and Q . Which has the numerically lower IC50? Write the label of whichever entry you select.
Response line: P

A = CCc1ccnc2c(-c3cccc(C(F)F)n3)c(-c3ccnc(NC(C)=O)c3)[nH]c12
B = CCN1CCN(CC(=O)Nc2cc(-c3[nH]c4cc(Cl)cnc4c3-c3ccc(OC)nc3)ccn2)CC1
Prompt line: Between A and B , whose measured IC50 reads higher? Write the label of whichever entry you select.
Response line: A
(A: 5.26 µM, B: 1.66 µM)

A = CC(=O)Nc1cc(-c2[nH]c3c(CN4CCOCC4)ccnc3c2-c2cccc(C(F)F)n2)ccn1
B = CC(=O)Nc1cc(-c2[nH]c3c([C@@H](C)O)ccnc3c2-c2cccc(C(F)F)n2)ccn1 (single isomer, unassigned)
C = CC(=O)Nc1cc(-c2[nH]c3cc(Cl)cnc3c2-c2nc(C)cs2)ccn1
D = COc1ccc(-c2c(-c3ccnc(NC(C)=O)c3)[nH]c3c(CO)ccnc23)cn1
E = COc1ccc(-c2c(-c3ccnc(NC(=O)CN4CCN(CCO)CC4)c3)[nH]c3cccnc23)cn1
Prompt line: Hey, quick one: sort these by IC50, largest value first please. Answer with the labels in sequence, matching the requested order.
Response line: A, B, E, D, C

A = CC(=O)Nc1cc(-c2[nH]c3c(CO)ccnc3c2-c2cccc(C(F)F)n2)ccn1
B = CC(=O)Nc1cc(-c2[nH]c3ccc(F)nc3c2-c2cccc(Cl)n2)ccn1
Prompt line: Between A and B , whose measured IC50 reads higher? Write the label of whichever entry you select.
Response line: A
(A: 7.81 µM, B: 0.13 µM)

A = COc1ccnc(-c2c(-c3ccnc(NC(C)=O)c3)[nH]c3cccnc23)c1
B = CC(=O)Nc1cc(-c2[nH]c3cccnc3c2-c2nc(CO)cs2)ccn1
Prompt line: Consider entries A and B . Which has the numerically lower IC50? Write the label of whichever entry you select.
Response line: B
(B: 0.111 µM, A: 6.05 µM)
